Biological target: T1, human IL-23 (human, UniProt Q9NPF7 20-189; P29460 23-328)
T1 construct: Bought recombinant heterodimeric cytokine (eBioscience 34-8239-85 for panning; R&D Systems for the splenocyte assay); also called hIL-23; hIL23
T1 sequence (looked up) 1: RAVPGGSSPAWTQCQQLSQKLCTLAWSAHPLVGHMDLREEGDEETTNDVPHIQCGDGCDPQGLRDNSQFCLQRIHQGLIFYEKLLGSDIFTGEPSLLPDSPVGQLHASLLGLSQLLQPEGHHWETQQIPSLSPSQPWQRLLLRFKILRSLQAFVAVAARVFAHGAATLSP
T1 sequence (looked up) 2: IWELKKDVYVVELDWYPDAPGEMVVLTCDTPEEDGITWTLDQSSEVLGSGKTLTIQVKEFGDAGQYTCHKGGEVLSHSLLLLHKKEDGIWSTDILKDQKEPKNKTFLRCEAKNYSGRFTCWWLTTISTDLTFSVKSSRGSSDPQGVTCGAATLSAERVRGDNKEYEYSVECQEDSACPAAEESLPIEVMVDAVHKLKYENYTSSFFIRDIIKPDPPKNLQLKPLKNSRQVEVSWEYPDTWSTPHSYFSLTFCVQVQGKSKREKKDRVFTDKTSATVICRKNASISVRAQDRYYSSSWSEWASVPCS
Assay: equilibrium ELISA, soluble polypeptide
The entries below are paired with their reported Kd.
Please state the figure in nM; there is no need to write the unit.

{"binder": "MB64 (designed binder) MSIQQIQKEITQIQAVIAGIQKYIYRMTGGSGGSGGGGSGGSGGMSIEEIQKQIAAIQCQIAAIQKQIYAMTGSGGGGSGMSIEEIQKQIAAIQGQIVAIYKQIMAMAT", "measured_number": 0.21}
{"binder": "MB23 (designed binder, 3 for clone 59 (conflict); also called non-PEGylated MB23 Alphabody) MSIEQIQKEITTIQEVIAAIQKYIYTMTGGSGGSGGMSIEEIQKQIAAIQCQIAAIQKQIYAMTGSGGGGSGMSIEEIQKQIAAIQEQIVAIYKQIMAMAS", "measured_number": 0.17}
{"binder": "MA5 (designed binder) MSIKQIQKEIAQIQEVIAAIQKWIYRMTGGSGGSGGMSIEEIQKQIAAIQCQIAAIQKQIYAMTGSGGGGSGGSGGGGSGMSIEEIQKQIAAIQDQIVAIYKQIMAMSS", "measured_number": 0.1}

Challenge: # lookup: Kd of MA15 (designed binder) MSIQEIQKEIANIQAVIAGIQKYIYTMTGGSGGSGGGGSGGSGGMSIEEIQKQIAAIQCQIAAIQKQIYAMTGSGGGGSGMSIEEIQKQITAIQAQIIAIYKQIMAMPR
Response given: 0.31

Values compiled from patent US20150266925A1.
